- Assay System: T1, N terminally GST-tagged full-length neurofibromin 2 lipid binding deficient mutant (T59V, W60E, R309Q, R310Q) (human, UniProt P35240 1-595, T59V | W60E | R309Q | R310Q, labeled with NT-647 red dye (maleimide conjugated cysteine reactive or NHS conjugated lysine reactive))
- T1 construct: neurofibromin 2 (merlin), human, full length, residues 1-595, with four point mutations; Cloned into pGEX-6P-1; also called LBD; source: E. coli BL21(DE3) Rosetta2, purified (GST column); not shown: GST, N-terminal, kept
- T1 sequence (looked up): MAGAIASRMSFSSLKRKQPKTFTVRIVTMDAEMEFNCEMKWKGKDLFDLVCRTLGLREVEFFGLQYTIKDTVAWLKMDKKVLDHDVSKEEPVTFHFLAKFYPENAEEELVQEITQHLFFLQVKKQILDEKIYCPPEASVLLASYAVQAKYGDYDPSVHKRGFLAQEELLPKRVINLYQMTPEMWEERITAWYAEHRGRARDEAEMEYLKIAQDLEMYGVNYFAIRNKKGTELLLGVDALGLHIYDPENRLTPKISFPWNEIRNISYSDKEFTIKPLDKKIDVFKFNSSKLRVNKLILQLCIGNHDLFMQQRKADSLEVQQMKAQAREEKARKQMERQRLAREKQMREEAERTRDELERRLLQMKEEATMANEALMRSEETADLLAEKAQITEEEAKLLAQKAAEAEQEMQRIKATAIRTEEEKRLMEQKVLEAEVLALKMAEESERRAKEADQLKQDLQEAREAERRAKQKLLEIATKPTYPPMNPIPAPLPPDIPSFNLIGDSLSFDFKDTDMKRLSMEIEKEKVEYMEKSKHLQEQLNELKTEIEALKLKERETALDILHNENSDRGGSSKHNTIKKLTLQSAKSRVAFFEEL
- Assay Info: MST; unlabeled LATS1 69-100 (2 mM) titrated into 5 uM NT-647-labeled GST-neurofibromin 2; 20 mM Tris pH 7.5, 300 mM NaCl, 0.01% Tween-20; room temperature
- Assay Conditions: both partners purified

- Binder: "PKFGTHHKALQEIRNSLLPFANETNSSRSTSE (domain or fragment, UniProt O95835 69-100, looked up, Hippo pathway kinase LATS1, residues 69-100; it was unlabeled; also called LATS1 kinase; LAST1 residues 69-100) [LATS1 (residues 69-100)]"
  Kd (µM): 176
